Target: USP7 (Homo sapiens, UniProt Q93009)
Construct: USP7, construct USP7 (208-1102) 6*His, Viva Biotech; 6xHis (C); purchased Viva Biotech
Sequence (Q93009 208-1102): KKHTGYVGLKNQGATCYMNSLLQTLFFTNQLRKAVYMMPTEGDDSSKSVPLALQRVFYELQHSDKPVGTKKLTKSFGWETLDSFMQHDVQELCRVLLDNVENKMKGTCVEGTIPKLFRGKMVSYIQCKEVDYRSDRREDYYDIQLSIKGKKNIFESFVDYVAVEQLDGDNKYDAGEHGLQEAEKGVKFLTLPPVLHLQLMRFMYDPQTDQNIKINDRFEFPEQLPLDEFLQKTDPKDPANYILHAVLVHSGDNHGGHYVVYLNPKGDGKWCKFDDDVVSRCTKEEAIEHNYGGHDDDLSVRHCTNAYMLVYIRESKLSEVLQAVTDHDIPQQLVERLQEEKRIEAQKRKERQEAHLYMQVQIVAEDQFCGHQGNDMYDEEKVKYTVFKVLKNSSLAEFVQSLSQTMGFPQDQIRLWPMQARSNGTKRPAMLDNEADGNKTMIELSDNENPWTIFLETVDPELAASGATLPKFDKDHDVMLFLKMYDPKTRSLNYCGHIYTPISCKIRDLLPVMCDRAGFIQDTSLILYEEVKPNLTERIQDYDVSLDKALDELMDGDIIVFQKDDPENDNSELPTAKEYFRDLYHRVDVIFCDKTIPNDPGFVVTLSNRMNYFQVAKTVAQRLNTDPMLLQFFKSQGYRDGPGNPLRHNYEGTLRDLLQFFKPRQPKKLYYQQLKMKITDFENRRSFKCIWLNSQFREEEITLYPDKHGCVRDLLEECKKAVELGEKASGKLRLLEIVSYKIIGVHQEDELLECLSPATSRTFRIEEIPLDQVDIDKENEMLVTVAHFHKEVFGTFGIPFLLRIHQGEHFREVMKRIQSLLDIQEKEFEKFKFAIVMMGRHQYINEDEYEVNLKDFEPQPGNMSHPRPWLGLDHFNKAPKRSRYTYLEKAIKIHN
Assay: USP7 Assay A (Ubitquin-Rhodamine 110 Assay)
Type: biochemical
Conditions: USP7 activity in USP7 assay A and B (table does not say which assay per compound); read-out: USP7_IC50
outcomeMeasure: IC50

Record excerpt, results attached:
• O=C(C1CC1)N1CCC(O)(Cn2cnc3c(cnn3-c3ccc(-n4cc(N5CCOCC5)cn4)cc3)c2=O)CC1 [Compound I-819] = 200 to 1000 nM
• CN1Cc2cnn(-c3ccc(C(=O)N4CCC(O)(Cn5cnc6c(cnn6-c6ccc(F)cc6)c5=O)CC4)cc3)c2C1 [Compound I-1000] = 1000 to 10000 nM
• O=C(C1CCC(Oc2ncccn2)CC1)N1CCC(O)(Cn2cnc3c(cnn3-c3ccc(F)cc3)c2=O)CC1 (stereo not shown) [Compound I-747] = 1000 to 10000 nM
• CC1(C(=O)N2CCC(O)(Cn3cnc4c(cnn4-c4cccc(N5CC(N6CCOCC6)C5)c4)c3=O)CC2)CC1 [Compound I-1637] = 200 to 1000 nM
• O=C(C1CCC(Oc2ccc(F)cn2)CC1)N1CCC(O)(Cn2cnc3c(cnn3-c3ccccc3)c2=O)CC1 (stereo not shown) [Compound I-743] = 1000 to 10000 nM
• CN1CCN(c2cccc(-n3ncc4c(=O)n(CC5(O)CCN(C(=O)C[C@H](C(F)F)n6cccn6)CC5)cnc43)c2)CC1 [Compound I-829] = < 200 nM

Okay, now this compound:
Data request: Under USP7 (Homo sapiens, UniProt Q93009): IC50 value of O=C(C[C@@H](C(F)F)n1ccc(F)n1)N1CCC(O)(Cn2cnc3c(cnn3-c3cccc(N4CCOCC4)c3)c2=O)CC1 [Compound I-789] ?
Data returned: < 200 nM
